target: CYP2A6 (Homo sapiens, UniProt P11509); assay: recombinant CYP activity with fluorogenic substrate
Sequence (P11509 whole entry): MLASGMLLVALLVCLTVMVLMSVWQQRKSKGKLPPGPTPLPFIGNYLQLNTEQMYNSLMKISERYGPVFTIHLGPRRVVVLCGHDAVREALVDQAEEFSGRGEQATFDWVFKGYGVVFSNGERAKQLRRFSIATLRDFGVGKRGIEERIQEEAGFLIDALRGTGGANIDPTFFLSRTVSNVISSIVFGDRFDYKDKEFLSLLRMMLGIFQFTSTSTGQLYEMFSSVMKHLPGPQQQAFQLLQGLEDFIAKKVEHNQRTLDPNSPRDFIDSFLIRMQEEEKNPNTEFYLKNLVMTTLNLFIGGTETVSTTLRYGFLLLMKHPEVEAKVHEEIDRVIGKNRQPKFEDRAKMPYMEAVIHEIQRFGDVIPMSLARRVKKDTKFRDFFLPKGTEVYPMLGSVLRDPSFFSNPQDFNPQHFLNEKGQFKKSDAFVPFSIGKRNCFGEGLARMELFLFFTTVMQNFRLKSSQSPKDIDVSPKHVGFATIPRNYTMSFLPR
assay-readout: pIC50
API: returns pIC50 as number; meaning -log10 of concentration in mol/L.

Assay CYP2A6 (Homo sapiens, UniProt P11509), sample CC1=CC(=O)c2ccccc2C1=O [menadione, 2-methylnaphthalene-1,4-dione] , pIC50 read: 5.10

###

Biological target: CYP2B6 (Homo sapiens)
Sequence (P20813 1-491): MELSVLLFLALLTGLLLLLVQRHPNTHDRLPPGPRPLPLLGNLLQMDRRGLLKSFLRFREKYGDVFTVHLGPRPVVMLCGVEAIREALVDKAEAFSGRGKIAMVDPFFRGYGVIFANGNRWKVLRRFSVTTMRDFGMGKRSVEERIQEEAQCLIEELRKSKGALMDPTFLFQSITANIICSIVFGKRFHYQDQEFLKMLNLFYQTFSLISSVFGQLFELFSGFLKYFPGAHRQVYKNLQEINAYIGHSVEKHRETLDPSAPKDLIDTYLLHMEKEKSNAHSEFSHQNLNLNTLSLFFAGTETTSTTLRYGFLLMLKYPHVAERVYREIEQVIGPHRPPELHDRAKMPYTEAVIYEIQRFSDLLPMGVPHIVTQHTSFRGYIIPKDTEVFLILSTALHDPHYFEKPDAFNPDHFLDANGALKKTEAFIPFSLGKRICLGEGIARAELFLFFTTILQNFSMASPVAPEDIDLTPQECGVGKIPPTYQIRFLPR
Assay: recombinant CYP activity with fluorogenic substrate
assay-readout: IC50

The compound identified as `CC1=CC(=O)c2ccccc2C1=O` registered its IC50 at 5.76 µM

###

molecular target: UniProt:P10635; assay: recombinant CYP activity with fluorogenic substrate
Sequence (P10635 whole entry, one chain of several): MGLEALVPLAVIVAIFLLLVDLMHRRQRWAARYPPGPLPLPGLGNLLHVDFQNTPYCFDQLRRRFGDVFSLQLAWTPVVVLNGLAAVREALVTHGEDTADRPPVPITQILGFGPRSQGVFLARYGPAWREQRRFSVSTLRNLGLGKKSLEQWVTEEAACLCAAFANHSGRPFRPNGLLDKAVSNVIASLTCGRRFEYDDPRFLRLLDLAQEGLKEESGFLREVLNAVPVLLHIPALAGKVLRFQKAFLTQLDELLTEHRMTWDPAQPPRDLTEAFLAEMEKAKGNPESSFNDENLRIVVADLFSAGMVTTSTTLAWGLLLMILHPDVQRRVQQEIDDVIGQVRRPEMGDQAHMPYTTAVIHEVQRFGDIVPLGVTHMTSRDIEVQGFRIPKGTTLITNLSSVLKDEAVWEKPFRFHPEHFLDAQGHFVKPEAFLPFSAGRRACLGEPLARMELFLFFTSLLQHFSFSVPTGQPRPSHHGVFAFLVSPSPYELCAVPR
assay-readout: IC50 (µM)
Field format: number, assumed µM, no unit text.

Assay UniProt:P10635, sample CC1=CC(=O)c2ccccc2C1=O [menadione, 2-methylnaphthalene-1,4-dione] , IC50 read: 4.6

###

target: CYP2E1 (Homo sapiens); experiment: recombinant CYP activity with fluorogenic substrate
Sequence (P05181 whole entry, one chain of several): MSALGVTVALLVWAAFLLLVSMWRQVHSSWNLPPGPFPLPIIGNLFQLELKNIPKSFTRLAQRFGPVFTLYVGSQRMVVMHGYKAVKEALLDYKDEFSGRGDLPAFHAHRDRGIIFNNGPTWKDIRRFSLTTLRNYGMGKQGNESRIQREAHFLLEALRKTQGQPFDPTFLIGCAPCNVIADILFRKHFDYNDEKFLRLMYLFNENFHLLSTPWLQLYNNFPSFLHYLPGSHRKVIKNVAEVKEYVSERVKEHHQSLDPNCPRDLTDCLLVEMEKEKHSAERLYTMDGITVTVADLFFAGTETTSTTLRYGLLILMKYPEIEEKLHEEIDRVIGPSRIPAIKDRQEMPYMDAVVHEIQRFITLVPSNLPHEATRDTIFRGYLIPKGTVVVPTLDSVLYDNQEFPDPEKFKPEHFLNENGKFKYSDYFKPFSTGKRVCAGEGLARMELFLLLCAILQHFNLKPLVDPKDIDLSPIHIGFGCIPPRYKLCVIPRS
assay-readout: IC50

The compound identified as `CC1=CC(=O)c2ccccc2C1=O` registered its IC50 at 5.58 µM

###

target: CYP1A2 (Homo sapiens); assay: recombinant CYP activity with fluorogenic substrate
Sequence (P05177 2-516 limits assumed): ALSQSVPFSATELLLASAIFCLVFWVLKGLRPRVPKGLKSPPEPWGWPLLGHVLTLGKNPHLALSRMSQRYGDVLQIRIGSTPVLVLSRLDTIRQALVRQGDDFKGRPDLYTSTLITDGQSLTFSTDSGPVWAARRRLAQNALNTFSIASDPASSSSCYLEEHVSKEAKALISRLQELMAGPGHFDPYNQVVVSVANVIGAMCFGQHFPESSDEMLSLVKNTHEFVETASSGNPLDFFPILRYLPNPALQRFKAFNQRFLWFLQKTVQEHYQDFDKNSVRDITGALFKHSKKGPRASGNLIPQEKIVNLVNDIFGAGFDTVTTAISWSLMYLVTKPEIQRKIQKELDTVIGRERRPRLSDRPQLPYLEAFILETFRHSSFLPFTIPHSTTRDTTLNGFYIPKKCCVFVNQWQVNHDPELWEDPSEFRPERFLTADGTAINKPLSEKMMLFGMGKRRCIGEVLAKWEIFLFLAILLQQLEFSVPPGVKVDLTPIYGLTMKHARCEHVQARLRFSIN
assay-readout: pIC50
API: returns pIC50 as number; meaning -log10 of concentration in mol/L.

The compound identified as `CC1=CC(=O)c2ccccc2C1=O` registered its pIC50 at 5.35

###

molecular target: CYP2C9 (Homo sapiens); assay: recombinant CYP activity with fluorogenic substrate; format: biochemical
Sequence (P11712 whole entry, one chain of several): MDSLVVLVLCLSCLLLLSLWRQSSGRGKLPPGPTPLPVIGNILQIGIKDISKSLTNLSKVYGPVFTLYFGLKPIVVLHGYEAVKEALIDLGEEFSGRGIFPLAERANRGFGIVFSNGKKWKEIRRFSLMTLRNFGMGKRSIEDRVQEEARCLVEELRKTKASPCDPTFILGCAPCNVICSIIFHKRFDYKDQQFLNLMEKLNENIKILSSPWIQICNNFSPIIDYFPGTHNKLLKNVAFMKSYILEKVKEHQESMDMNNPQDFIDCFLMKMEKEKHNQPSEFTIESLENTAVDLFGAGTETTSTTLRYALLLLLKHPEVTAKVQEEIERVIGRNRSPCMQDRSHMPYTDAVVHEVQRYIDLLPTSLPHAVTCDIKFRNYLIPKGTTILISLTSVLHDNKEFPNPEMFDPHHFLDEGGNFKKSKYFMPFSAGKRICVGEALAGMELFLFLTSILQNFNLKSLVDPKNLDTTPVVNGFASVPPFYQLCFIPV
assay-readout: IC50 (µM)
Field format: number, assumed µM, no unit text.

Assay CYP2C9 (Homo sapiens), sample CC1=CC(=O)c2ccccc2C1=O [menadione, 2-methylnaphthalene-1,4-dione] , IC50 read: 8.91

###

Biological target: CYP1B1 (Homo sapiens)
Sequence (Q16678 1-543): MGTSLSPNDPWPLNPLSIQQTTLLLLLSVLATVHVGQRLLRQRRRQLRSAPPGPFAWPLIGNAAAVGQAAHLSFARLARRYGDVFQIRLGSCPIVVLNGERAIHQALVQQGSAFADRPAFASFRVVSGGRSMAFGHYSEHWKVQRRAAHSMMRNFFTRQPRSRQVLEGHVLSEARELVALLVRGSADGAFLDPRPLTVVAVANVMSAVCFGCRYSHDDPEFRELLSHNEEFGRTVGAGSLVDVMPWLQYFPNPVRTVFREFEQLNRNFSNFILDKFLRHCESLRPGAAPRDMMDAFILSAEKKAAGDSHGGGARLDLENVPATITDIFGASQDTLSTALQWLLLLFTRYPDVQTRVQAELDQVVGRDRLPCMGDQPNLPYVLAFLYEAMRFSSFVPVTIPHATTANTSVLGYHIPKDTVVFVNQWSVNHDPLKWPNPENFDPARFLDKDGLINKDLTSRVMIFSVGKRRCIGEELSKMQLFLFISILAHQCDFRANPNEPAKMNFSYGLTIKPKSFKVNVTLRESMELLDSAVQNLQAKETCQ
Sequence (P16435 2-677 partner): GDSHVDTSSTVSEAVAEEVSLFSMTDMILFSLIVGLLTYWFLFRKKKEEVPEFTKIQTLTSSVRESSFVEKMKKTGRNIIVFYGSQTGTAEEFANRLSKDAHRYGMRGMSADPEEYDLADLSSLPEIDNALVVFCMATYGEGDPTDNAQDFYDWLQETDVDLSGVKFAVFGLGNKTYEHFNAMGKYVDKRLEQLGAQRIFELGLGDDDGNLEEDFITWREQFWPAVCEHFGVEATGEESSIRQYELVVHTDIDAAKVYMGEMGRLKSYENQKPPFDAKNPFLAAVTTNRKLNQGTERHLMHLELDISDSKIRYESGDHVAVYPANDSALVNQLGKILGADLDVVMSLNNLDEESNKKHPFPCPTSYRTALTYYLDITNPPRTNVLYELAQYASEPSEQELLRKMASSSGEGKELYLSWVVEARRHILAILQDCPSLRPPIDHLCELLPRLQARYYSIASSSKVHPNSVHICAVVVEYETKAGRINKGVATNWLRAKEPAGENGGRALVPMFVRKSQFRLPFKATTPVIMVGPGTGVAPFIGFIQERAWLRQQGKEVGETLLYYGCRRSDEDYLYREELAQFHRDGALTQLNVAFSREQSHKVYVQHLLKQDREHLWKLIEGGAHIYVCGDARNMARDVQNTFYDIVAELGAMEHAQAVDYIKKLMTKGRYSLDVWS
Test: recombinant CYP activity with fluorogenic substrate
assay-readout: pIC50
API: returns pIC50 as number; meaning -log10 of concentration in mol/L.

The molecule identified as CC1=CC(=O)c2ccccc2C1=O [menadione, 2-methylnaphthalene-1,4-dione] registered its pIC50 at 5.15

###

molecular target: CYP2C19 (Homo sapiens, UniProt P33261); assay: recombinant CYP activity with fluorogenic substrate
Sequence (P33261 whole entry, one chain of several): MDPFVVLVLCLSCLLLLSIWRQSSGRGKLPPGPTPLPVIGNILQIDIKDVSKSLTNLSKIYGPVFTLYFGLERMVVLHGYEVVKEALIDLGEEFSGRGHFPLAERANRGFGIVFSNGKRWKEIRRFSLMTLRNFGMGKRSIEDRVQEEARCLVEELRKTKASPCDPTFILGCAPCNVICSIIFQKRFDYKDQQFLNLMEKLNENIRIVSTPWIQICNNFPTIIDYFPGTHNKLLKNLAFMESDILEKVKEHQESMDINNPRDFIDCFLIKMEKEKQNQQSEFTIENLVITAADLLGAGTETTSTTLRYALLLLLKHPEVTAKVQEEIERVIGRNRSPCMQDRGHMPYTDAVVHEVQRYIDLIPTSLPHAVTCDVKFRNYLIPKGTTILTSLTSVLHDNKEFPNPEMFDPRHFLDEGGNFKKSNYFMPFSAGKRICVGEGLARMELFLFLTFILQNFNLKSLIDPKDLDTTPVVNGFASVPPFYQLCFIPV
assay-readout: pIC50
API: returns pIC50 as number; meaning -log10 of concentration in mol/L.

The molecule identified as CC1=CC(=O)c2ccccc2C1=O [menadione, 2-methylnaphthalene-1,4-dione] registered its pIC50 at 5.07

###

target: CYP3A5 (Homo sapiens, UniProt P20815); assay: recombinant CYP activity with fluorogenic substrate
Sequence (P20815 whole entry, one chain of several): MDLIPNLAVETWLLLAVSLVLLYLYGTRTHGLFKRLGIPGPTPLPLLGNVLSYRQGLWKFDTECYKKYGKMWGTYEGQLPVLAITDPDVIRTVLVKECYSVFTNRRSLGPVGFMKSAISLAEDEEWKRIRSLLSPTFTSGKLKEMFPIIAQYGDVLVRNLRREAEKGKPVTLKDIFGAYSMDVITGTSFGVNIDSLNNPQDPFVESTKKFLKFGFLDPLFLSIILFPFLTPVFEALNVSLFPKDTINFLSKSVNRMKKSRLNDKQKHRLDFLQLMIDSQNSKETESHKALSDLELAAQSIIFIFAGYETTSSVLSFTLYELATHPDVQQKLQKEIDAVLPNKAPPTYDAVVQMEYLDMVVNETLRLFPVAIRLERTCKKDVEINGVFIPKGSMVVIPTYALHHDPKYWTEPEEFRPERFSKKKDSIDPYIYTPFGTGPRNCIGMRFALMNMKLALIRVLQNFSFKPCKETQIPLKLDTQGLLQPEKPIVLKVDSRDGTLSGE
assay-readout: pIC50
API: returns pIC50 as number; meaning -log10 of concentration in mol/L.

The molecule identified as `CC1=CC(=O)c2ccccc2C1=O` registered its pIC50 at 5.01
